target: Androgen receptor (Homo sapiens); test: Modulation of human androgen receptor expressed in African green monkey CV1 cells after 24 hrs by luciferase reporter gene assay
Sequence (P10275 whole entry): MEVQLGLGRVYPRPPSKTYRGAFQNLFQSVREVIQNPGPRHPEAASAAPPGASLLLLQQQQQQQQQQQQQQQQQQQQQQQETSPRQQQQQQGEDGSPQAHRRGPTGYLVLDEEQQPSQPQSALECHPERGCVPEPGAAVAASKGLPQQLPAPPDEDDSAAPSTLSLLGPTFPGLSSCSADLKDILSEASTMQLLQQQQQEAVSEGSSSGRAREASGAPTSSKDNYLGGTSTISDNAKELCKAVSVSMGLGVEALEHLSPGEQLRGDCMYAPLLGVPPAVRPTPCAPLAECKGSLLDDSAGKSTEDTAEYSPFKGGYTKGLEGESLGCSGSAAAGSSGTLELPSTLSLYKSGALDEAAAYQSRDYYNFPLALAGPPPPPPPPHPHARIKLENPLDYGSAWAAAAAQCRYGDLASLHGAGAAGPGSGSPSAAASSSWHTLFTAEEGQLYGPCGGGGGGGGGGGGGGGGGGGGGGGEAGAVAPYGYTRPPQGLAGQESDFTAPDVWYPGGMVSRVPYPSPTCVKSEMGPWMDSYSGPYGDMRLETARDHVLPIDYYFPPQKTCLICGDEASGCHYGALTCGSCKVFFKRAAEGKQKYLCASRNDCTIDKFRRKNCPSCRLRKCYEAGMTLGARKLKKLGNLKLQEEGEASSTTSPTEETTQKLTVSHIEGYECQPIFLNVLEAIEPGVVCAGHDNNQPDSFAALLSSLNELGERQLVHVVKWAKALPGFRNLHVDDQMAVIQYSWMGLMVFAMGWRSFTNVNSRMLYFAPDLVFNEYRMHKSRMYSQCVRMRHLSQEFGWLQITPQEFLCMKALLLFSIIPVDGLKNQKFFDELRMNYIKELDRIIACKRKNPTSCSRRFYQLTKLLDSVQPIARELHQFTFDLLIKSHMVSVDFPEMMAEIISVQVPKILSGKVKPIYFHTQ
Entries and their pEC50 values follow.
In simple prose, pEC50 is minus the logarithm base ten of a concentration in moles per litre.

Sample answers from the record:
> print(dat)
                                   molecule  value.measured
1  CCC(O)(c1ccc(C#N)c(C(F)(F)F)c1)C(F)(F)F (stereo unspecified)            8.40
2  C=CC(O)(c1ccc(C#N)c(C(F)(F)F)c1)C(F)(F)F (stereo unspecified)            7.90
3  Cc1c(C(O)(C(C)C)C(F)(F)F)ccc(C#N)c1Cl (stereo unspecified)            9.10
4  N#Cc1ccc(C(O)(c2ccc(Cl)s2)C(F)(F)F)cc1C(F)(F)F (stereo unspecified)            7.70
5  Cc1c(C(O)(C(C)(C)C)C(F)(F)F)ccc(C#N)c1Cl (stereo unspecified)            7.10

Inquiry: Item under review: N#Cc1ccc(C(O)(CO)C(F)(F)F)cc1C(F)(F)F (stereo unspecified) . Reported pEC50?
Reply text: 5.00

Inquiry: Moving on to the next molecule: N#Cc1ccc(C(O)(c2nccs2)C(F)(F)F)cc1C(F)(F)F (stereo unspecified)
Reply text: 8.70

Inquiry: Moving on to the next molecule: CCC(O)(c1ccc(C#N)c(Cl)c1C)C(F)(F)F (stereo unspecified)
Reply text: 8.70

Inquiry: Moving on to the next molecule: Cc1c(C(O)(c2cscn2)C(F)(F)F)ccc(C#N)c1C(F)(F)F (stereo unspecified)
Reply text: 8.23

Inquiry: Moving on to the next molecule: CC(C)C(O)(c1ccc(C#N)c(Cl)c1)C(F)(F)F (stereo unspecified)
Reply text: 8.40

Inquiry: Moving on to the next molecule: N#Cc1ccc(C(O)(C2CC2)C(F)(F)F)c(Cl)c1Cl (stereo unspecified)
Reply text: 9.70

----------
target: UniProt P10275; test: Modulation of human androgen receptor expressed in African green monkey CV1 cells after 24 hrs by luciferase reporter gene assay
pEC50: −log10 of the molar value.
Everything with pEC50 lower than 8 is label 0; everything else, including exactly 8, is label 1.

> print(dat)
                                   compound  category.label
1  C=C(C)C(O)(c1ccc(C#N)c(C(F)(F)F)c1)C(F)(F)F (stereo unspecified)         label 0
2  CC(O)(c1ccc(C#N)c(Cl)c1Cl)C(F)(F)F (stereo unspecified)         label 0
3  N#Cc1ccc(C(O)(C2CCC2)C(F)(F)F)cc1C(F)(F)F (stereo unspecified)         label 1
4  CCC(O)(c1ccc(C#N)c(Cl)c1Cl)C(F)(F)F (stereo unspecified)         label 1

Alright, here's another compound for you.
Inquiry: Threshold query (pEC50 >= 8) on N#Cc1ccc(C(O)(c2cscn2)C(F)(F)F)cc1C(F)(F)F (stereo unspecified)
Reply text: label 1

----------
Entries and their half-life values follow.
experiment: Half life in Wistar Han rat at 5 mg/kg, administered as single dose via oral gavage by LC-MS/MS analysis; type: ADME, organism-based; conditions: in vivo
Kindly write the number and append the unit.

Sample answers from the record:
> print(dat)
                                   compound  value.measured
1  N#Cc1ccc(C(O)(c2cocn2)C(F)(F)F)cc1C(F)(F)F (stereo unspecified)             8 h
2  CCC(O)(c1ccc(C#N)c(C(F)(F)F)c1)C(F)(F)F (stereo unspecified)            83 h
3  N#Cc1ccc(C(O)(C2CC2)C(F)(F)F)cc1Cl (stereo unspecified)            18 h
4  Cc1c(C(O)(C2CC2)C(F)(F)F)ccc(C#N)c1C(F)(F)F (stereo unspecified)            10 h
5  Cc1c(C(O)(c2cocn2)C(F)(F)F)ccc(C#N)c1C(F)(F)F (stereo unspecified)           5.5 h

Inquiry: Item under review: N#Cc1ccc(C(O)(C2CC2)C(F)(F)F)cc1C(F)(F)F (stereo unspecified) . Reported half-life?
Reply text: 20 h
